The values you see were collected from patent US20260373266A1.

Target entity: DCAF1 WD40 domain (residues 1077-1390) (Homo sapiens, UniProt Q9Y4B6)
Construct: DCAF1 WD40 domain (residues 1077-1390)
Sequence (Q9Y4B6 1077-1390): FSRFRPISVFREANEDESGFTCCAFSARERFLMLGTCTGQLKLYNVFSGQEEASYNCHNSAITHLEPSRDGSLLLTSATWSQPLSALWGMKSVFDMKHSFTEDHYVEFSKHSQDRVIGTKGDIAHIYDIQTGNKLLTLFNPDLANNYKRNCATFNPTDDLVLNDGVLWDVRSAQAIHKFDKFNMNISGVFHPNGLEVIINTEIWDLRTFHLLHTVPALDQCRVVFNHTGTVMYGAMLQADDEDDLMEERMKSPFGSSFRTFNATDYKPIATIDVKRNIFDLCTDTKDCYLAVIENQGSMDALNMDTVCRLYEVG
Method summary: DCAF1 binding assay by SPR (Biacore 8K+), DCAF1-3 KD
Condition notes: 25 °C, read-out: DCAF1-3 SPR (KD)
pKd: −log10 of the molar value.
Measured quantity: pKd

## Input For Cc1c(F)ccc(F)c1-c1c(C(=O)N[C@@H](CC(=O)N2CCNCC2)c2cccc(Cl)c2)c[nH]c1C(=O)c1ccccc1 , what is its reported pKd?
## Output > 5.00

====

Reported Kd by item:
Target entity: DCAF1 WD40 domain (residues 1077-1390) (Homo sapiens)
Construct: DCAF1 WD40 domain (residues 1077-1390)
Method summary: DCAF1 binding assay by SPR (Biacore 8K+), DCAF1-3 KD
Condition notes: 25 °C, read-out: DCAF1-3 SPR (KD)

Compound: Fc1cccc(N2CCC[C@@H](n3ccc4c(N5CCOCC5)ccnc43)C2)c1 [I-49]
Measured quantity: Kd
Result: 100 to 200 µM
//
Compound: C=CC(=O)NCCCN1CCN(c2ccnc3c2CCN3C2CCCN(c3cccc(F)c3)C2)CC1 (centres unmarked) [I-845]
Measured quantity: Kd
Result: 10 to 100 µM
//
Compound: Nc1cc(N[C@@H]2CCCN(c3cccc(F)c3)C2)cc(C2CCCCC2)c1 [I-970]
Measured quantity: Kd
Result: 10 to 100 µM
//
Compound: C[C@@H](NC(=O)c1cn[nH]c1-c1c(F)cccc1F)c1ncc[nH]1 [I-839]
Measured quantity: Kd
Result: > 200 µM

Field: next compound
## Input For NC(=O)Cc1ccc(F)c(-c2[nH]ncc2C(=O)N[C@@H](CC(N)=O)c2cccc(Cl)c2)c1 [I-521] , what is its reported Kd?
## Output 10 to 100 µM
